Data provenance is PubChem BioAssay (NCI).

log10 of TGI listing for selected compounds.
- Test system: NCI-H522 lung
- PROTOCOL TEXT: NCI tumour cell line growth inhibition, 48 h
For clarity, the numbers are log10 values of TGI expressed in µM.

These recorded examples may help you get a feel for the data.
COMPOUND: N#Cc1c(N)nc2c3c1NC(=O)C(C(N)=O)C3c1ccccc1O2 (centres undefined)
TARGET OR TEST SYSTEM: NCI-H522 lung
log10 of TGI: 1.85

COMPOUND: CN=C1C=CC(=C(c2ccc(N(C)C)cc2)c2ccc(N(C)C)cc2)C=C1
TARGET OR TEST SYSTEM: NCI-H522 lung
log10 of TGI: -0.10

# lookup: log10 of TGI of CNCCCNc1nc2ccccc2c2c(=O)c3cc(OC)ccc3sc12
0.59

Would you kindly repeat that for CN(C)CC1CCC(CN(C)C)C(=O)C1=O (centres undefined) ?
0.14

// next record c1ccc(OCCC[P+](c2ccccc2)(c2ccccc2)c2ccccc2)cc1
0.63

Would you mind doing CC/C(Cc1ccccc1)=C(\c1ccc(OCCN2CCCC2)cc1)c1ccc(OC(=O)NCc2ccccc2)cc1 as well?
0.62

And what about the compound CC(C)OC(=S)Nc1ccc(Cl)c(/C=N/OC(C)(C)C)c1 ?
1.49

###

- System: MALME-3M melanoma
- PROTOCOL TEXT: NCI tumour cell line growth inhibition, 48 h
Below: a set of entries, each annotated with reported TGI.

MOLECULE: COc1nc(C#CC2CCCCC2)nc(OC)n1
TARGET OR TEST SYSTEM: MALME-3M melanoma
VALUE: 6.49 µM

Pending molecule:
# input molecule: CCN(CC)CC1CCCCN1CC(=O)N1CC(C)C(=O)Nc2ccccc21 (centres undefined) ; wanted: its TGI
> 100 µM

###

- System: M14 melanoma
- PROTOCOL TEXT: NCI tumour cell line growth inhibition, 48 h
READOUT KIND: TGI

Please review the entries below; each comes with its answer.
MOLECULE: CC1OC(=O)C(O)=C1O (stereo not drawn)
TGI: > 100 µM
--
MOLECULE: Cc1ccc(S(=O)(=O)NC(=O)C2=C3SCCN3C(=O)N(S(=O)(=O)c3ccc(C)cc3)C2c2ccccc2)cc1 (stereo not drawn)
TGI: > 100 µM
--
MOLECULE: Cc1c2cccc-2ccc2c3ccccc3n(C(=O)c3ccc(Cl)cc3)c12
TGI: > 100 µM
--
MOLECULE: Cn1c(=O)sc2cc(C(=S)N3CCCCC3)ccc21
TGI: > 100 µM
--
MOLECULE: O=c1[nH]c(=O)n(C2OC(CO)C(O)C2O)cc1OCCCc1ccccc1 (stereo not drawn)
TGI: > 100 µM

Which measured TGI value corresponds to NCCSCCC(=O)O ?
> 100 µM

Next molecule: Cc1ccc([N+](=O)[O-])c2c(NCCNC(=O)c3cc(C(=O)NCCNc4ccnc5c(C)ccc([N+](=O)[O-])c45)n(C)n3)ccnc12
> 100 µM

Input O=[N+]([O-])/C(C(Cl)=C(Cl)Cl)=C(/Nc1cccc2cccnc12)n1nnc2ccccc21
25.5 µM

For CC1=CCC[C@H]2[C@](C)(CC3=CC(=O)C(SCC(C)C)=CC3=O)[C@@H](C)CC[C@]12C then?
34.7 µM

Follow-up entry: C/C(CN1C(=O)c2ccccc2C1=O)=N\NS(=O)(=O)c1cccc(C(=O)O)c1
> 100 µM

Cool, now CCOC1=C(c2ccccc2)N2CCCCC2O1 (stereo not drawn)
12.1 µM

Can you check Cc1c([C@H](C)[C@@H]2NC[C@@H](C)C[C@H]2O)ccc2c1C[C@H]1[C@H]2CC=C2C[C@@H](O)CC[C@@]21C next?
31.4 µM

Can you handle CCN(CC)C(=O)CCN1CC1 next?
> 10 µM

Repeat with CSc1cnc2ccccc2c1Sc1c[nH]c2ccccc2c1=O
27.2 µM

Field entry: C1CCCCc2nc3c(nc2CCC1)c1nc2c(nc1c1nc4c(nc31)CCCCCCCC4)CCCCCCCC2
> 100 µM

And the next one, O=[Se](O)O ?
23.4 µM

Next entry: COC(=O)Cn1cnc2c(Cl)nc(Nc3ccccc3)nc21
> 100 µM

Same lookup for COC(NC(=O)Nc1ccccc1C)(C(F)(F)F)C(F)(F)F , please.
> 100 µM

Okay, and NC(N)=NC1C(O)C(O)C(O)C(N=C(N)N)C1O (stereo not drawn) ?
> 100 µM

Same question, Cc1ncc(COP(=O)(O)O)c(/C=C2\SC(=S)NC2=O)c1O this time
> 100 µM

Field entry: COc1ccc(C)cc(=O)c1O
> 100 µM

One more molecule: O=C(/C=C/C=C/c1ccccc1)c1ccco1
34.8 µM

Request: N#CC1=C(N)Oc2c(ccc3ccccc23)C1c1cc(=O)oc2ccc(Cl)cc12 (stereo not drawn)
> 100 µM
